All figures here come from patent US20110136733A1.

- experimental_system: T1, human recombinant GIP receptor (human, UniProt P48546 22-466)
- T1 construct: whole, on cells; Membranes of CHO-K1 cells expressing the receptor; also called hGIP receptor
- T1 sequence (looked up): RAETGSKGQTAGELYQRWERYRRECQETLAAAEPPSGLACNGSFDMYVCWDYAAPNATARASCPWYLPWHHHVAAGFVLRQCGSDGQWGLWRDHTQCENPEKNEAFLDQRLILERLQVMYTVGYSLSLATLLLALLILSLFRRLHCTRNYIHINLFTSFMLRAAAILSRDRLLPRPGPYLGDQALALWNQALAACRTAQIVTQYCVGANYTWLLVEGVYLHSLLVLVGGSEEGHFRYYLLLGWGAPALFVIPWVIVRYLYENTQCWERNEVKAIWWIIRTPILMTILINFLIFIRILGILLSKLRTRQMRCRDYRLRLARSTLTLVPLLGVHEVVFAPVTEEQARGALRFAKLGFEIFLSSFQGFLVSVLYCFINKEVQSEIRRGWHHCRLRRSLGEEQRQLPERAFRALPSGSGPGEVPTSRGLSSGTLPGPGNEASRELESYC
- test_method_notes: [125I]GIP competition, membranes of CHO-K1 cells expressing human GIP receptor
Where no end group is shown, it is not given here. [ ]: non-standard residue; d: D form. The star is where a group is joined. Myristoyl = CCCCCCCCCCCCCC(=O)*; Ac6c = NC1(C(=O)O)CCCCC1; Nle = CCCC[C@H](N)C(=O)O; Orn = NCCC[C@H](N)C(=O)O; Aib = CC(C)(N)C(=O)O
Just a reminder that ties go to false (0): only Ki strictly below 20 nM counts as true (1).

- binder: "[Orn](Myristoyl)AEGTF[Ac6c]SDYSIAMDKIHQQDFVNWLLAQKGKKNDWKHNITQ-OH [[Orn^1(N-C(O)-(CH2)12-CH3), A6c^7]hGIP(1-42)-OH]"
  class_label: "false (0)"
- binder: "YAXGTFISDYSIAXDKIHQQDFVNWLLAQKGKKNDWKHNITQ (4Hyp at 3; A6c at 14; C-terminal free acid) [(4Hyp^3, A6c^14)hGIP(1-42)-OH]"
  class_label: "false (0)"
- binder: "YXEGTFISDYSXAMDKIHQQDFVNWLLAQK (Aib at 2 and 12; C-terminal amide) [(Aib^2, 12)hGIP(1-30)-NH2]"
  class_label: "true (1)"

For this binder, is Ki lower than 20 nM? XAEGTFISDYSIXMDKIHQQDFVNWLLAQKGKKNDWKHNITQ (4Hppa (3-(4-hydroxyphenyl)propionic acid) at 1; Aib at 13; C-terminal free acid) [(4Hppa^1, Aib^13)hGIP(1-42)-OH]
true (1)

Is the reported Ki for Y[Aib]EGTF[Ac6c]SDYSIA[Nle]DKIHQQDFVNWLLAQKGKKNDWKHNI[Aib]Q-OH [(Aib^2, 41, A6c^7, Nle^14)hGIP(1-42)-OH] strictly below 20 nM?
true (1)

Hi there! Is Ki for YXEGTFXSDYSIAMDKIHQQDFVNWLLAQK (Aib at 2; A6c at 7; C-terminal amide) [(Aib^2, A6c^7)hGIP(1-30)-NH2] below 20 nM, do you know?
true (1)

For this binder, is Ki lower than 20 nM? YAXGTFISDYSIXXDKIHQQDFVNWLLAQKGKKNDWKHNITQ (hPro at 3; Aib at 13; Nle at 14; C-terminal free acid) [(hPro^3, Aib^13, Nle^14)hGIP(1-42)-OH]
false (0)
